Tested on: 454973-116-R2-J3-PDC spheroids, percent test/control viability
assay.remarks: Anticancer human tumor 454973-116-R2-J3-PDC patient-derived pancreatic carcinoma cell line growth inhibition [CLK]
condition: second compound 10 µM; first compound 0.0316 µM; active compounds read low; spheroids with HUVEC and MSC
Text: A high-throughput screen of multi-cell type tumor spheroids was designed to identify active combinations of […] and targeted small molecules. Complex spheroids include a stromal component modeled by human endothelial cells (HUVEC) and fibroblasts modeled by human mesenchymal stem cells (MSCs). […] Compounds. […] If the clinical Cmax for an agent had not been determined, the highest concentration tested was 10 microM. […]
readout.label: viability, T/C (%)
Give bare numbers, in %.

Worked examples, 4 compounds total:
CCCS(=O)(=O)Nc1ccc(F)c(C(=O)c2c[nH]c3ncc(-c4ccc(Cl)cc4)cc23)c1F + CN1CCN(c2cc(C(=O)Nc3cc4cc(-c5cnn(C)c5)ccc4cn3)ccn2)CC1    0.34
CC1(C)CCC(CN2CCN(c3ccc(C(=O)NS(=O)(=O)c4ccc(NCC5CCOCC5)c([N+](=O)[O-])c4)c(Oc4cnc5[nH]ccc5c4)c3)CC2)=C(c2ccc(Cl)cc2)C1 + CNC(=O)c1ccc(Nc2nc(OC3CCCC3)c3c(-c4ccc5nc(C)oc5c4)c[nH]c3n2)c(OC)c1    26.6
C#Cc1c(F)ccc2cc(O)cc(-c3ncc4c(N5CC6CCC(C5)N6)nc(OCC56CCCN5CC(F)C6)nc4c3F)c12 (stereo not given) + CN1CCN(c2cc(C(=O)Nc3cc4cc(-c5cnn(C)c5)ccc4cn3)ccn2)CC1    0.11
CC1COCCN1c1cc(C2(S(C)(=N)=O)CC2)nc(-c2ccnc3[nH]ccc23)n1 (stereo not given) + CN1CCN(c2cc(C(=O)Nc3cc4cc(-c5cnn(C)c5)ccc4cn3)ccn2)CC1    1.56

## Task Item under review: CCN1CCN(Cc2ccc(Nc3ncc(F)c(-c4cc(F)c5nc(C)n(C(C)C)c5c4)n3)nc2)CC1 + CNC(=O)c1ccc(Nc2nc(OC3CCCC3)c3c(-c4ccc5nc(C)oc5c4)c[nH]c3n2)c(OC)c1 . Reported viability, T/C?
## Result 33.5

###

System: 454973-116-R2-J3-PDC spheroids, percent test/control viability
assay.remarks: Anticancer human tumor 454973-116-R2-J3-PDC cell line growth inhibition [CLK];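 also: spheroids exposed to compounds for 7 days before readout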
condition: second compound 0.1 µM; first compound 1 µM; active compounds read low; spheroids with HUVEC and MSC
From the text: A high-throughput screen of multi-cell type tumor spheroids was designed to identify active combinations of […] and targeted small molecules. Complex spheroids include a stromal component modeled by human endothelial cells (HUVEC) and fibroblasts modeled by human mesenchymal stem cells (MSCs). […] Compounds. […] If the clinical Cmax for an agent had not been determined, the highest concentration tested was 10 microM. […]
readout.label: viability, T/C (%)
Answers are plain numbers, in %.

Worked examples, 2 molecules total:
Nc1ccccc1NC(=O)c1ccc(CNC(=O)OCc2cccnc2)cc1 + CNC(=O)c1ccc(Nc2nc(OC3CCCC3)c3c(-c4ccc5nc(C)oc5c4)c[nH]c3n2)c(OC)c1    69
CCc1c2c(nc3ccc(O)cc13)-c1cc3c(c(=O)n1C2)COC(=O)[C@]3(O)CC + CN1CCN(c2cc(C(=O)Nc3cc4cc(-c5cnn(C)c5)ccc4cn3)ccn2)CC1    0.31

## Task Under 454973-116-R2-J3-PDC spheroids, percent test/control viability: viability, T/C value of O=c1[nH]cc(F)c(=O)[nH]1 + CN1CCN(c2cc(C(=O)Nc3cc4cc(-c5cnn(C)c5)ccc4cn3)ccn2)CC1 ?
## Result 57.1

The reported measurements were obtained from PubChem BioAssay AID2060618.
